Biological target: human DGKζ (Homo sapiens (Human))
Sequence (Q13574 whole entry, looked up): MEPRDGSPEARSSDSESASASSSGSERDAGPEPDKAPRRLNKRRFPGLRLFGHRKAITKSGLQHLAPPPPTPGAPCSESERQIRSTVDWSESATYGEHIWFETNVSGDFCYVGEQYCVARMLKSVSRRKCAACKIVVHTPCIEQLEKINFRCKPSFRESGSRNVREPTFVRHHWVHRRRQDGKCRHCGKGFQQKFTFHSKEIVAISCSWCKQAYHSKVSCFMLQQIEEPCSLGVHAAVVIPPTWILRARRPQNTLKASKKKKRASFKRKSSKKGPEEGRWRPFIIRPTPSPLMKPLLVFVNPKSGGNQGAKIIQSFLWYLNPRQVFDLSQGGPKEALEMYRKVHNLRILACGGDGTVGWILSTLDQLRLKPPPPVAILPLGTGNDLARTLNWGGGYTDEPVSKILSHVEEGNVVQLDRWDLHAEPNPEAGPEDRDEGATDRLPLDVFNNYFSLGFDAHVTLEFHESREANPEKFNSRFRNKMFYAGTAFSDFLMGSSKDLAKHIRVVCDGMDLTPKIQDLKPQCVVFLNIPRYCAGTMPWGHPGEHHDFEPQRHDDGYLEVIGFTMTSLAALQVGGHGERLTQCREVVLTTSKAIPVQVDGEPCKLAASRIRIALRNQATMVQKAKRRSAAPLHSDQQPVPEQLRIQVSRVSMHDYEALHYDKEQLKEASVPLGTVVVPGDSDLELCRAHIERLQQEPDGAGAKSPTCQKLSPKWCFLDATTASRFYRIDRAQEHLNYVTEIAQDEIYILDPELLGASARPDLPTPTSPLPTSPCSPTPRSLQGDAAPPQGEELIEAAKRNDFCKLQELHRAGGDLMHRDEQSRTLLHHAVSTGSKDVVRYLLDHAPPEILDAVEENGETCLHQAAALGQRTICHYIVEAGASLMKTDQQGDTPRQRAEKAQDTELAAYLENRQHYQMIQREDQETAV
Experiment: biochemical
Assay type: biochemical
Conditions: liposome (LIPGLO) assay; read-out: DGKζ LIPGLO IC50
parameter: pIC50
The read-out pIC50 is expressed as -log10 of concentration in moles per litre.

Solved entries (count: 3):
>>> print(df.to_string())
                                   compound  parameter  measurednumber
0  CC[C@@H]1CN(c2cc(=O)n(C)c3ccc(C#N)nc23)CC[C@@H]1Oc1cccc(C(C)(C)C)c1 [Example 167]      pIC50            6.00
1  COc1cc(OC2CCN(c3c(C#N)c(=O)n(C)c4ccc(Cl)nc34)CC2)ccc1Cl      pIC50            4.85
2  Cc1cc(OC2CCN(c3cc(=O)n(C)c4ccc(C#N)nc34)CC2)nc(C)n1      pIC50            4.96

Here is another compound to look at.
Request: Consider the compound shown here: Cn1c(=O)c(C#N)c(N2CCC(Oc3ccc(C(F)(F)F)cc3)CC2)c2nc(Cl)ccc21 What is its recorded pIC50?
Response: 3.62
